- METHOD_DESCRIPTION: NCI Yeast Anticancer Drug Screen. Data for the mec2-1 strain (AID 157)
- EXPERIMENTAL_PARAMETERS: S. cerevisiae mec2-1 strain, at 50.0 µM
This is part of a sample that, as a whole, favours compounds with a hit. Of some 79,000 tested, about 15% had one in any assay. The source made the active and inactive calls. Rule as the data show it: active = growth inhibition above about 70%; inactive = the rest.
Labels: active, inactive

{"COMPOUND": "NC(Cc1ccc(O)cc1)C(=O)OCc1ccccc1 (stereo not given)", "CAT": "inactive"}
{"COMPOUND": "NCCCn1c2ccccc2c2cnccc21", "CAT": "inactive"}
{"COMPOUND": "CCOC(=O)CC(c1ccccc1)C(C#N)(c1ccccc1)N(C)C (stereo not given)", "CAT": "inactive"}
{"COMPOUND": "NNc1ncnc2c(C3OC(CO)C(O)C3O)[nH]nc12 (stereo not given)", "CAT": "inactive"}
{"COMPOUND": "CCCSCCC(N)C(=O)O (stereo not given)", "CAT": "inactive"}
{"COMPOUND": "COC(=O)C1C2C=CC(C2)N1[C@@H](C)c1ccccc1 (stereo not given in full)", "CAT": "inactive"}
{"COMPOUND": "CCOC(=O)c1ccc(NC(=S)Nc2ccccc2S)cc1", "CAT": "inactive"}
{"COMPOUND": "CC1CC(C)SC(C)S1 (stereo not given)", "CAT": "inactive"}
{"COMPOUND": "CC(=O)NC(c1ccc(F)cc1)(c1ccc(F)cc1)C(F)(F)F", "CAT": "inactive"}
{"COMPOUND": "Cc1cc(C)c(C2CC(O)C(CO)O2)cc1C (stereo not given)", "CAT": "inactive"}
{"COMPOUND": "CCCC(=O)Oc1ccc(C(C)(C)C)cc1", "CAT": "inactive"}
{"COMPOUND": "C/C(=N/NC(=S)Nc1ccccc1Cl)c1cccc(/C(C)=N\\NC(=S)Nc2ccccc2Cl)n1", "CAT": "inactive"}
{"COMPOUND": "O=C(OCC(OC(=O)c1ccccc1)C(OC(=O)c1ccccc1)C(OC(=O)c1ccccc1)C(COC(=O)c1ccccc1)OC(=O)c1ccccc1)c1ccccc1 (stereo not given)", "CAT": "inactive"}
{"COMPOUND": "CCOP(=O)(OCC)C(Cc1ccc(OC)c(OC)c1)N=C(c1ccccc1)c1ccccc1 (stereo not given)", "CAT": "inactive"}
{"COMPOUND": "COc1ccc(C2C(C#N)=C(N)NC(=O)C2C(N)=O)cc1 (stereo not given)", "CAT": "inactive"}
{"COMPOUND": "CC(=O)CCC(CC(=O)O)C(C)C (stereo not given)", "CAT": "inactive"}
{"COMPOUND": "O=c1c2ccccc2on1CN1CCN(Cn2oc3ccccc3c2=O)CC1", "CAT": "inactive"}
{"COMPOUND": "CC(CO)(NC(=O)c1ccccc1)C(=O)O (stereo not given)", "CAT": "inactive"}
{"COMPOUND": "COC(=O)c1cc(-c2cccc3ccccc23)[nH]c(=O)c1C#N", "CAT": "inactive"}
{"COMPOUND": "COc1cccc[n+]1C", "CAT": "inactive"}
{"COMPOUND": "Cc1cnn(-c2ccccc2)[n+]1[O-]", "CAT": "inactive"}
{"COMPOUND": "Cc1ccc(-n2cnc(C(=N)C#N)c2N)cc1", "CAT": "inactive"}
{"COMPOUND": "CCN(CC)CCCCCOC(=O)c1cccc(N)c1", "CAT": "inactive"}
{"COMPOUND": "COC(=O)CSc1[nH]c2nc(C)nc(Nc3ccccc3)c2c1C#N", "CAT": "inactive"}
{"COMPOUND": "C#CCN1CCCC1", "CAT": "inactive"}
{"COMPOUND": "COc1ccc2cc3n(c2c1)CCc1cc(OC)c(OC)cc1-3", "CAT": "inactive"}
{"COMPOUND": "COC1=CC(=O)C(C(C)=O)=C(C2(C)C(=O)CCCC2=O)C1=O", "CAT": "inactive"}
{"COMPOUND": "O=C(NNc1ccccc1OCc1ccccc1)C(F)(F)F", "CAT": "inactive"}
{"COMPOUND": "CC(C)(C)NC(=O)NCc1ccc(Cl)c(Cl)c1", "CAT": "inactive"}
{"COMPOUND": "CC1OC(OCC2COC(O)(Oc3c(-c4ccc(O)c(O)c4)oc4cc(O)cc(O)c4c3=O)C(O)C2O)C(O)C(O)C1O (stereo not given)", "CAT": "inactive"}
{"COMPOUND": "CCOC(=O)CNc1nc(Cl)nc(NCC(=O)OCC)n1", "CAT": "inactive"}
{"COMPOUND": "CCCCCCCCCCCCCCCCCC(=O)N/N=C/c1ccccc1OC", "CAT": "inactive"}
{"COMPOUND": "CCC(CC)(CC#N)C1CCCCC1", "CAT": "inactive"}
{"COMPOUND": "C=C1c2ccccc2C=NN1c1ccccc1", "CAT": "inactive"}
{"COMPOUND": "Nc1ccc(SCCC(=O)O)cc1", "CAT": "inactive"}
{"COMPOUND": "CC(C)OC(CCCl)c1ccccc1 (stereo not given)", "CAT": "inactive"}
{"COMPOUND": "Cc1ccc(/C=N/NC(=O)c2ccccc2NC(=O)c2ccccc2)cc1", "CAT": "active"}
{"COMPOUND": "COc1ccc2ccccc2c1I", "CAT": "inactive"}
{"COMPOUND": "N/C(=N\\c1nc(N)cc(N)n1)Nc1ccc(S(N)(=O)=O)cc1", "CAT": "inactive"}
{"COMPOUND": "CC(=O)OC1CC(OC(C)=O)C(OC(C)=O)C(C)O1 (stereo not given)", "CAT": "inactive"}
{"COMPOUND": "CCNC(=S)OC1CCC2(C)C(=CCC3C2CCC2(C)C(C(C)CCC(CC)C(C)C)CCC32)C1 (stereo not given)", "CAT": "inactive"}
{"COMPOUND": "CN1C(=O)C2C(C1=O)[C@H]1c3ccccc3C=CN1[C@@H]2C(=O)c1ccccc1 (stereo not given in full)", "CAT": "inactive"}
{"COMPOUND": "NC(=O)/C=C1\\NC(=O)CS1", "CAT": "inactive"}
{"COMPOUND": "CCOC(=O)C(SC(Cl)(S(=O)(=O)c1ccccc1)S(=O)(=O)c1ccccc1)C(=O)OCC", "CAT": "inactive"}
{"COMPOUND": "CCOC(=O)C1CSC(N)=N1 (stereo not given)", "CAT": "inactive"}
{"COMPOUND": "CC1=CC[C@@H](Br)C(C)(C)[C@]12CC[C@]1(C)O[C@@H]1C2", "CAT": "inactive"}
{"COMPOUND": "OC(C1COCO1)C1OCOC1C1COCO1 (stereo not given)", "CAT": "inactive"}
{"COMPOUND": "C#CC(C)(O)CCCCCC (stereo not given)", "CAT": "inactive"}
{"COMPOUND": "OCc1cn(C(c2ccccc2)(c2ccccc2)c2ccccc2)cn1", "CAT": "inactive"}
{"COMPOUND": "C/C(=N/O)c1ccc(O)cc1O", "CAT": "inactive"}
